Protocol notes: NCI Yeast Anticancer Drug Screen. Data for the bub3 strain (AID 167)
Test settings: S. cerevisiae bub3 mutant strain, at 50.0 µM
This is part of a sample that, as a whole, favours compounds with a hit. Of some 79,000 tested, about 15% had one in any assay. Active and inactive are the calls of the source. No stated cut-off is given here; in the data, active means growth inhibition above about 70%; inactive means the rest.
Please answer using one outcome listed in T for active, F for inactive

>  <Molecule>
CCC(c1ccc(Cl)cc1)C(C#N)c1ccccc1 (stereo not drawn)

>  <Group label>
F

$$$$

### Prompt State the result this test recorded for CC(C)NC(=O)OCc1c2c(n(C)c1COC(=O)NC(C)C)-c1ccccc1CC2 .
### Response T

### Prompt State the result this test recorded for O=C1c2ccccc2C2N1CCCN2C(=O)c1sc2ccccc2c1Cl (stereo not drawn) .
### Response T

### Prompt State the result this test recorded for O=C(N/C(=C\c1ccc2c(c1)OCO2)c1nc2ccccc2s1)c1ccccc1 .
### Response T

### Prompt State the result this test recorded for O=C1C(Cl)=CC(=NCl)C=C1Cl .
### Response T

###

Protocol notes: NCI Yeast Anticancer Drug Screen. Data for the mlh1 rad18 strain (AID 175)
Test settings: S. cerevisiae mlh1 rad18 strain growth inhibition; at 5.0 µM (retest, dose inferred, filed as 0.5); active compounds read high
Compounds without any hit were thinned out: in the full panel of roughly 79,000, 15% have a hit. Active and inactive are the calls of the source. Cut-off read from the data, not from the text of the source: active = growth inhibition above about 70%; inactive = the rest.
Readout label: growth inhibition

Some solved cases for reference:
>  <Compound>
CCC(CO)Nc1nc2cc(Cl)ccc2c2ccc(Cl)cc12 (stereo not drawn)

>  <Readout label>
growth inhibition

>  <Recorded measurement>
20% (inactive)

$$$$
>  <Compound>
CSCCC(NC(=O)C(CCSC)NS(=O)(=O)Cc1ccccc1)C(=O)O (stereo not drawn)

>  <Readout label>
growth inhibition

>  <Recorded measurement>
-4% (inactive)

$$$$

Shift focus to the following entry.
### Prompt Please list growth inhibition recorded for the compound Nc1ccc2c(c1)CCc1ccccc1-2
### Response 2% (inactive)

###

Protocol notes: NCI Yeast Anticancer Drug Screen. Data for the bub3 strain (AID 167)
Test settings: S. cerevisiae bub3 mutant strain, at 50.0 µM (retest, dose inferred, filed as 5.0), active compounds read high
About 79,000 compounds went through this panel and 15% of them were active in at least one assay; those are over-represented in the sample as a whole.
Readout label: growth inhibition (%)
Express the result in % but write the number alone.

Some solved cases for reference:
>  <Compound>
[N-]=[N+]=NCC(O)c1ccc2c(c1)[nH]c1ccccc12 (centres undefined)

>  <Unit descriptor>
%

>  <growth inhibition>
36

$$$$
>  <Compound>
O=C(CCCl)Nc1cc2ccccc2oc1=O

>  <Unit descriptor>
%

>  <growth inhibition>
-10

$$$$
>  <Compound>
CN(C)C1CCC2C3CCC4=CC(=O)CCC4(C)C3CCC21C (centres undefined)

>  <Unit descriptor>
%

>  <growth inhibition>
-63

$$$$
>  <Compound>
COc1ccc(/C=C2\CN(C)C/C(=C\c3ccc(OC)c(OC)c3OC)C2=O)c(OC)c1OC

>  <Unit descriptor>
%

>  <growth inhibition>
96

$$$$
>  <Compound>
Nc1cc(F)cc(F)c1[N+](=O)[O-]

>  <Unit descriptor>
%

>  <growth inhibition>
19

$$$$
>  <Compound>
COc1ccc(C2Oc3ccc(Cl)cc3C=C2[N+](=O)[O-])cc1OC (centres undefined)

>  <Unit descriptor>
%

>  <growth inhibition>
96

$$$$
>  <Compound>
N#CC1=CN(Cc2ccccc2)C(C#Cc2ccccc2)C=C1 (centres undefined)

>  <Unit descriptor>
%

>  <growth inhibition>
0

$$$$
>  <Compound>
COc1ccc2nc3cc(Cl)ccc3c(NCCCCN(C)C)c2c1

>  <Unit descriptor>
%

>  <growth inhibition>
18

$$$$
>  <Compound>
CC(=O)N(O)c1ccc2c(c1)Cc1cc(F)ccc1-2

>  <Unit descriptor>
%

>  <growth inhibition>
80

$$$$
>  <Compound>
NC(=S)N/N=C/c1cn(CCCl)c2ccccc12

>  <Unit descriptor>
%

>  <growth inhibition>
56

$$$$

### Prompt Please list growth inhibition recorded for the compound N#Cc1c(-c2ccc(Cl)cc2)c2c(n(C3OC(CO)C(O)C(O)C3O)c1=S)CCCC2 (centres undefined)
### Response 96

### Prompt Please list growth inhibition recorded for the compound CCC[CH2][Sn]([CH2]CCC)([O]C(=O)c1ccc(C)c(N)c1)[O]C(=O)c1ccc(C)c(N)c1
### Response 90

### Prompt Please list growth inhibition recorded for the compound C[n+]1c(/C=C/c2ccc(Cl)cc2)sc2ccccc21
### Response 34

### Prompt Please list growth inhibition recorded for the compound CN(Nc1ccc(Cl)cc1)c1ccc(Cl)cc1
### Response 97

Measured values drawn from PubChem BioAssay (NCI) for this set.
